These measurements were taken from patent US20210171613A1.

Reported values of fold decrease in affinity relative to parent A26.8 VHH for individual entries
# System under test: T1, Clostridium difficile toxin A (TcdA) (Clostridium difficile, UniProt P16154 1-2710)
# T1 construct: mature; also called full-length TcdA
# T1 sequence (P16154 whole entry): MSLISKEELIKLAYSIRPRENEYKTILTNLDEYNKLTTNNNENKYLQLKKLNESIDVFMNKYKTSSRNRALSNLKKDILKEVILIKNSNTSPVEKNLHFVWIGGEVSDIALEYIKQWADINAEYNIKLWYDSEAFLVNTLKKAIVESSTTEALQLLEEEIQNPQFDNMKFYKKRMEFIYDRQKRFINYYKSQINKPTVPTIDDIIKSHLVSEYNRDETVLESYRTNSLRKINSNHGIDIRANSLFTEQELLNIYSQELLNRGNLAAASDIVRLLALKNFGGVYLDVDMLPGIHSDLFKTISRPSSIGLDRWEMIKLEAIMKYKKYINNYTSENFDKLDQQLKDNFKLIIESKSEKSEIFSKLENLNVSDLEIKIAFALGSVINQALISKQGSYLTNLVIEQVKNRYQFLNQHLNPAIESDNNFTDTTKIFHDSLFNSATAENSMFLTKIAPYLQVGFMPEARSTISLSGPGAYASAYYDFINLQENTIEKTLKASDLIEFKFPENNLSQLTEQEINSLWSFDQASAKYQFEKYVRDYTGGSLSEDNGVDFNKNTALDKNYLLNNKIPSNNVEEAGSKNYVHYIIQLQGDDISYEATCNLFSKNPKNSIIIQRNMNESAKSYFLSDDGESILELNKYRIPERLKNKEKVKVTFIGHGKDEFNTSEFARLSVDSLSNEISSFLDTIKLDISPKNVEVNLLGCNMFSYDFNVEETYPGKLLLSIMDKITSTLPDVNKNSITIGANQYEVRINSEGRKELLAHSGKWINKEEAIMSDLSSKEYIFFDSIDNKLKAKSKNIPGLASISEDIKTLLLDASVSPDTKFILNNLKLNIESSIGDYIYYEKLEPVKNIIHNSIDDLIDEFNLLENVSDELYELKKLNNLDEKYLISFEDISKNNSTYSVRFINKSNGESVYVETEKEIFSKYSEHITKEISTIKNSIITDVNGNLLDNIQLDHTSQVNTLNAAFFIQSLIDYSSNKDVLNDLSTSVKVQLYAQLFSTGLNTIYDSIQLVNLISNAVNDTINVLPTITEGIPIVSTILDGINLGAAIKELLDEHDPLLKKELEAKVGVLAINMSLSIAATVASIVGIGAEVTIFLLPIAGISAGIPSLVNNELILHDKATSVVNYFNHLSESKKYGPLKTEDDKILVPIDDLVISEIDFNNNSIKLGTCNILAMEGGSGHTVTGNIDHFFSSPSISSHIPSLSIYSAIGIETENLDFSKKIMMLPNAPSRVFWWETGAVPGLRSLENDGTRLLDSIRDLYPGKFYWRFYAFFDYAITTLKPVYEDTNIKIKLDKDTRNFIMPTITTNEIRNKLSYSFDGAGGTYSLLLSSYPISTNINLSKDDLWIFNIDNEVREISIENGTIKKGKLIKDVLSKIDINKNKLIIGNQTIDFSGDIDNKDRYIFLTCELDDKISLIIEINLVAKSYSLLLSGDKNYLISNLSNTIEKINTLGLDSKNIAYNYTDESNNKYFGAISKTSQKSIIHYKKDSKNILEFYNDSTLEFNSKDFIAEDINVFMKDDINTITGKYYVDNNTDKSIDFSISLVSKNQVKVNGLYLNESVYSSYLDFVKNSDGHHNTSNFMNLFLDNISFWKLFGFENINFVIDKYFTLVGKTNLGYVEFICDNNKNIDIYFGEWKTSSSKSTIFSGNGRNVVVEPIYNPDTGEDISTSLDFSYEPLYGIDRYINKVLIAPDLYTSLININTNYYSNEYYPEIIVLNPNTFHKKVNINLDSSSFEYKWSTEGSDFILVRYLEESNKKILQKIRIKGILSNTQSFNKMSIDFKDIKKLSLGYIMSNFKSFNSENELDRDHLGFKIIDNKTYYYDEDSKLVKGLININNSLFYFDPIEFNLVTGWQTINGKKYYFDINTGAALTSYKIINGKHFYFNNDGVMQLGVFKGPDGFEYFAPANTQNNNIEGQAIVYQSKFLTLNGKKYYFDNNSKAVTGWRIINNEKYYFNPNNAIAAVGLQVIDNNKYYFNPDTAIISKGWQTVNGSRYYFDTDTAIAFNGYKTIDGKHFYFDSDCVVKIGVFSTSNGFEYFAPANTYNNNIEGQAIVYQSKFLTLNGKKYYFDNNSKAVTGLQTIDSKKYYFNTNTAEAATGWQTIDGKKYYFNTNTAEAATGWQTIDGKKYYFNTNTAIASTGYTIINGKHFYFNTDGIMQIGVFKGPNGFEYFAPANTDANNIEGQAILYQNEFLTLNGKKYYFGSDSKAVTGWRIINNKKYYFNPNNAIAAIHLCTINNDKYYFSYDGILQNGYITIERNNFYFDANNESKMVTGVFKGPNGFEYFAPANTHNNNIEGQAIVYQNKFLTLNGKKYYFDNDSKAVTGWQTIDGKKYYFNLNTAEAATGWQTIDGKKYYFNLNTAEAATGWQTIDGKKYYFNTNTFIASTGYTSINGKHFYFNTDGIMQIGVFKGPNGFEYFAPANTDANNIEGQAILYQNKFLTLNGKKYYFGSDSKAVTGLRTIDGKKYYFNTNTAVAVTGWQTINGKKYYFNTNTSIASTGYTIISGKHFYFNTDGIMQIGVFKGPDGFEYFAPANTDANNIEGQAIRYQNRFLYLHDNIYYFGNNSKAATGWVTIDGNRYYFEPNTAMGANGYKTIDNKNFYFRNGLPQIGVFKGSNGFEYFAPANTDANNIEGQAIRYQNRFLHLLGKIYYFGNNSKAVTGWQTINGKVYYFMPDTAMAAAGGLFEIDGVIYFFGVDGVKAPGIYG
# Assay comment: SPR on immobilized TcdA
Observed property: fold decrease in affinity relative to parent A26.8 VHH

Binder: A26.8 VHH mutant E110Q (VHH, not shown: small tags and cut ends) VHH: QVKLEESGGGLVQAGGSLRLSCAASERTFSRYPVAWFRQAPGAEREFVAVISSTGTSTYYADSVKGRFTISRDNAKVTVYLQMNNLKREDTAVYFCAVNSQRTRLQDPNQYDYWGQGTQVTVSS
Value observed: ≤ 2.5 fold

Binder: A26.8 VHH mutant D107N (VHH, not shown: small tags and cut ends) VHH: QVKLEESGGGLVQAGGSLRLSCAASERTFSRYPVAWFRQAPGAEREFVAVISSTGTSTYYADSVKGRFTISRDNAKVTVYLQMNNLKREDTAVYFCAVNSQRTRLQNPNEYDYWGQGTQVTVSS
Value observed: ≤ 2.5 fold

Binder: A26.8 VHH mutant Q106L (VHH, not shown: small tags and cut ends) VHH: QVKLEESGGGLVQAGGSLRLSCAASERTFSRYPVAWFRQAPGAEREFVAVISSTGTSTYYADSVKGRFTISRDNAKVTVYLQMNNLKREDTAVYFCAVNSQRTRLLDPNEYDYWGQGTQVTVSS
Value observed: 30 to 300 fold

Binder: A26.8 VHH mutant S53R (VHH, not shown: small tags and cut ends) VHH: QVKLEESGGGLVQAGGSLRLSCAASERTFSRYPVAWFRQAPGAEREFVAVISRTGTSTYYADSVKGRFTISRDNAKVTVYLQMNNLKREDTAVYFCAVNSQRTRLQDPNEYDYWGQGTQVTVSS
Value observed: ~10 fold
